- system.tested: sigma receptor (Rattus norvegicus, UniProt Q9R0C9)
- Sequence (Q9R0C9 whole entry): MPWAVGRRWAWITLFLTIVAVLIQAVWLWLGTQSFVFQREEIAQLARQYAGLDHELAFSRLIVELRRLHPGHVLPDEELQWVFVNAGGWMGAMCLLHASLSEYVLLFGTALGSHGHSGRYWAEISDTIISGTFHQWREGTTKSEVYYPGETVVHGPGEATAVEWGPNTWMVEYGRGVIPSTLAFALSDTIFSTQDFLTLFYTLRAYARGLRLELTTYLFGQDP
- assay.text: biochemical
- experimental.setup: 2 nM [3H](+)-3-PPP, rat whole brain membrane, pH 8.0, 21° C., 90 min
- Procedure: Male Wistar rats were employed as test animals. Radiolabeled ^3 H! […] (-)-sulpiride was used as a compound specifically binding to dopamine D2 receptor. […] After the completion of each reaction, the reaction mixture was filtered with suction into a glass filter (GF/B) and the radioactivity of the filter paper was measured with a liquid scintillation spectrometer. […]
pIC50: −log10 of the molar value. Where a name gives a salt, the structure may show the parent alone.
# pIC50 per entry

# molecule, pIC50
data = [
    ("CCCCCCN(CCCCCC)CCc1sc(N)nc1-c1ccc(Br)cc1.Cl.Cl [Test Drug B (Table 1), dihydrochloride]", 8.80),
    ("CCCCCN(CCCCC)CCc1sc(N)nc1-c1ccc(Br)cc1 [Test Drug A (Table 1), dihydrochloride]", 8.06),
    ("CCCN1CCCC(c2cccc(O)c2)C1 (single isomer, unassigned) [3-PPP, 3-(3-hydroxyphenyl)-N-n-propylpiperidine, reference compound]", 7.61),
    ("CCCCCCCCN(CCCCCCCC)CCc1sc(N)nc1-c1ccc(Br)cc1 [Test Drug C (Table 1), dihydrochloride]", 8.49),
]
